Hello, the source for this data is ChEMBL document CHEMBL1143577, in case you need it.

# System: SW-620
# measurementNotes: Inhibitory concentration against SW620 colorectal carcinoma cell line in MTS assay
# Format: functional, cell-based, Homo sapiens
# statedConditions: Homo sapiens, SW-620
pIC50: −log10 of the molar value.
reportedEndpoint: pIC50

Q: Give the measured pIC50 of CC1OC(n2c3ccccc3c3c4c(c5c6ccccc6[nH]c5c32)C(=O)N(N)C4=O)CC(O)C1O (stereo not drawn) .
A: < 4.00

Q: Bench note: what pIC50 did CC1OC(n2c3ccccc3c3c4c(c5c6ccccc6[nH]c5c32)C(=O)N(C)C4=O)CC(NCc2ccccc2)C1O (stereo not drawn) show?
A: < 4.00

Q: Endpoint output: pIC50 of O=C1c2c(c3c4ccccc4n(C4OC(COCc5ccccc5)C(OCc5ccccc5)C(OCc5ccccc5)C4OCc4ccccc4)c3c3[nH]c4ccccc4c23)C(=O)N1CCCn1ccnc1 (stereo not drawn) . Value?
A: < 4.30
